# MEASURED_TARGET: human NTCP (Homo sapiens, UniProt Q14973)
# Sequence (Q14973 whole entry): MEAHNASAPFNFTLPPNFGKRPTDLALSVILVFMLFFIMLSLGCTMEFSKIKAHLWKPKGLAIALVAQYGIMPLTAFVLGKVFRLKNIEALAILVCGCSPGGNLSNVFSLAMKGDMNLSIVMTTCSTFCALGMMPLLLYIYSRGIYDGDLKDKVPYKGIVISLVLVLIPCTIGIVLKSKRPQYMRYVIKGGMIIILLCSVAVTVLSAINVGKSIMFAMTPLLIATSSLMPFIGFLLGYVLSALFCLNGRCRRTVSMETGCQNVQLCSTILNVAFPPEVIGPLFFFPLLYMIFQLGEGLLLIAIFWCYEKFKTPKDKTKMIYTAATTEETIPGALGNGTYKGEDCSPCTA
# METHOD: Screening taurocholate uptake assay (96-well, [14C]taurocholate, 10 µM drug)
# SETTINGS: screening taurocholate uptake, 10 µM drug; B-score
Structures can show the parent of a compound that is named as a salt.
MEASUREMENT_KIND: B-score functional assay
Give bare numbers.

Take a look at these entries with their results.
COMPOUND	MEASURED_TARGET	B-score functional assay
C[C@@H](O)[C@H]1C(=O)N2C(C(=O)O)=C(SCCN=CN)C[C@H]12	human NTCP (Homo sapiens, UniProt Q14973)	1.996
COC(=O)Nc1nc2ccc(Sc3ccccc3)cc2[nH]1	human NTCP (Homo sapiens, UniProt Q14973)	1.989
CO/N=C(\C(=O)N[C@@H]1C(=O)N2C(C(=O)O)=C(C[N+]3(C)CCCC3)CS[C@H]12)c1csc(N)n1 [Cefepime hydrochloride]	human NTCP (Homo sapiens, UniProt Q14973)	1.484
C[C@@H]1C[C@H]2[C@@H]3C[C@H](F)C4=CC(=O)C=C[C@]4(C)[C@@]3(Cl)[C@@H](O)C[C@]2(C)[C@H]1C(=O)COC(=O)C(C)(C)C [Clocortolone pivalate]	human NTCP (Homo sapiens, UniProt Q14973)	4.298
NCc1ccccc1CC(=O)N[C@@H]1C(=O)N2C(C(=O)O)=C(CSc3nnnn3CC(=O)O)CS[C@H]12 [Ceforanide]	human NTCP (Homo sapiens, UniProt Q14973)	3.778
Clc1cc(Cl)c(OCC#CI)cc1Cl	human NTCP (Homo sapiens, UniProt Q14973)	4.15
NC(=O)OCC(O)COc1ccc(Cl)cc1 (centres unmarked) [Chlorphensin carbamate]	human NTCP (Homo sapiens, UniProt Q14973)	3.271

Please find the next compound below.
# assay system human NTCP (Homo sapiens, UniProt Q14973): give B-score functional assay of CCN(CC)CCNC(=O)c1cc(Cl)c(N)cc1OC.Cl [Metoclopramide monohydrochloride]
0.859
